// data source = patent US8431376B2

- SYSTEM_TESTED: S. pyogenes DNA polymerase holoenzyme (PolC, tau-complex, β) (Streptococcus pyogenes, UniProt Q8NZB5)
- Sequence (Q8NZB5 whole entry): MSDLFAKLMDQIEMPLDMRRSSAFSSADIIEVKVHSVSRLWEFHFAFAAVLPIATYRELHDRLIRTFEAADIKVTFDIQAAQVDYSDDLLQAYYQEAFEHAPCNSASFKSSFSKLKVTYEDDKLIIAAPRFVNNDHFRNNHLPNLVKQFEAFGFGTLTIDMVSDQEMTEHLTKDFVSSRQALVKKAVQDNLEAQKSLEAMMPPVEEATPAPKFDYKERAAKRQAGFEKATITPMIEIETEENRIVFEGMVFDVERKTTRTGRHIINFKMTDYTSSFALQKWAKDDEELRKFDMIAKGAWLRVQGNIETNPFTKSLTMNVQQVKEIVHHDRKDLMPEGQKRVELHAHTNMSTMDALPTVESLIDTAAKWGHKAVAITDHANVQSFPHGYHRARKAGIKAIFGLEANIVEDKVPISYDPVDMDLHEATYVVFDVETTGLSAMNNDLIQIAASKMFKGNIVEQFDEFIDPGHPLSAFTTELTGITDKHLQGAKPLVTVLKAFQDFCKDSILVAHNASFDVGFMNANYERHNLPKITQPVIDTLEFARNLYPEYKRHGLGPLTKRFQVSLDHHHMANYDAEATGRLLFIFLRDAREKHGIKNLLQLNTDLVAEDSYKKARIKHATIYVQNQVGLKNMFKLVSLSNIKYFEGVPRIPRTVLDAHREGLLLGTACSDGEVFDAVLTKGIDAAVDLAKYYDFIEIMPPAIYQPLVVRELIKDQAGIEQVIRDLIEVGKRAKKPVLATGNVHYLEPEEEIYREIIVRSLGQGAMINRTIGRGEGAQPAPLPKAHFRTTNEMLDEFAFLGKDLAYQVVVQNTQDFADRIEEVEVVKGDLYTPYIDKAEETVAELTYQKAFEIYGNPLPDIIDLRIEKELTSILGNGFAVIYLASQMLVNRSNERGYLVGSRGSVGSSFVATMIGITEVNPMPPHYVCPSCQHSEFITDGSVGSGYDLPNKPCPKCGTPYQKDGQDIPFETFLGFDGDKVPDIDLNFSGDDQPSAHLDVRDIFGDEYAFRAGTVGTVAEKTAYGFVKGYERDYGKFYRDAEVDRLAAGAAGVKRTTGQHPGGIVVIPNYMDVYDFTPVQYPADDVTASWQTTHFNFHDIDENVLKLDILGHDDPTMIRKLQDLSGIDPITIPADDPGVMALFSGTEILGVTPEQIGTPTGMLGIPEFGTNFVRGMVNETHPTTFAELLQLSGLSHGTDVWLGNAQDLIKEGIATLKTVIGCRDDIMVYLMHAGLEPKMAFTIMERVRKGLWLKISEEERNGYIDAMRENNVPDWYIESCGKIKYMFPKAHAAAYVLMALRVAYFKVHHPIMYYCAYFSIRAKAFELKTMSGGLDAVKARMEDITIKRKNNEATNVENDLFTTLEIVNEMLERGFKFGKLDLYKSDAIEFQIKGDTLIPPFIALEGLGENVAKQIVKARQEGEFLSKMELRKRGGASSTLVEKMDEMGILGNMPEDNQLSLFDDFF
- Sequence (Q7DAL6 1-556 partner): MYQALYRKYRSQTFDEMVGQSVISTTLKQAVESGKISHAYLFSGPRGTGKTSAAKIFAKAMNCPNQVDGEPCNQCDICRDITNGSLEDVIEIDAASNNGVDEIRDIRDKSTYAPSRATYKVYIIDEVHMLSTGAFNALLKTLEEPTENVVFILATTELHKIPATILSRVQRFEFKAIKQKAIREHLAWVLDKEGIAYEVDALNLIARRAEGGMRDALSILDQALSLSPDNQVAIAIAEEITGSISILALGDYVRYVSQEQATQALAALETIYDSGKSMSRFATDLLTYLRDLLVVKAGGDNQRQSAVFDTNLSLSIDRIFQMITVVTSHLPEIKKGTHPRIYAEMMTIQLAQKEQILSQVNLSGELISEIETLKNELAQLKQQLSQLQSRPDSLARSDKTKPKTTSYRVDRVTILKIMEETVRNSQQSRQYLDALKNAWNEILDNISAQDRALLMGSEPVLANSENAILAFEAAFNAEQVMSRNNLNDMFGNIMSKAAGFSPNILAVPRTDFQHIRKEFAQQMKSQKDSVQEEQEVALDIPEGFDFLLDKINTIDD
- Sequence (Q7DAL5 1-346 partner): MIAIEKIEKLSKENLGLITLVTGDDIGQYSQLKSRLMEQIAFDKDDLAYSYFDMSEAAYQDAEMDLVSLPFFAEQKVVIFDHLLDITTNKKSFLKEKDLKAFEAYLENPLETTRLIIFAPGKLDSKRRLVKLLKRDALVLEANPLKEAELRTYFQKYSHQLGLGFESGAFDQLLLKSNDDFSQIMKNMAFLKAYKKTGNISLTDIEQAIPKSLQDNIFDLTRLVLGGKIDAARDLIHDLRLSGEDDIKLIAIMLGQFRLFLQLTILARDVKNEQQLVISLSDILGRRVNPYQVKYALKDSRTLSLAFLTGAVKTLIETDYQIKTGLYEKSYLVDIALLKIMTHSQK
- Sequence (Q9A209 1-378 partner): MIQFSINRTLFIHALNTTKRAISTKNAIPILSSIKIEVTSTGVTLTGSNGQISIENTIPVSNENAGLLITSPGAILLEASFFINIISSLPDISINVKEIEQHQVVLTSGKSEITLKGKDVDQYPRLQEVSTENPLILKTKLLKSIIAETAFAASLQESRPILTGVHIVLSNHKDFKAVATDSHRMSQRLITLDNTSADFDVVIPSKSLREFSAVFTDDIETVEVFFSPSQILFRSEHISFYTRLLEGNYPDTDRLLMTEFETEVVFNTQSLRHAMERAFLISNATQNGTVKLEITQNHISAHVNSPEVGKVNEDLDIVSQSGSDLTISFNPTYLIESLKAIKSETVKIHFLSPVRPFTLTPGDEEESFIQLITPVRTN
- EXPERIMENTAL_CONDITIONS: read-out: IC50 S. pyog.
pIC50: −log10 of the molar value.
We use 4 as the dividing line for pIC50: on or above the line is 1.0, below is 0.0.

# COMPOUND, CLASS
rows = [
    ("O=C1NC(=S)S/C1=C\\c1ccc(F)cc1F", 0.0),
    ("COc1cccc(/C=C2\\SC(=S)NC2=O)c1F", 0.0),
    ("O=C1NC(=S)S/C1=C\\c1cccc(F)c1F", 0.0),
    ("CN(C)c1ccc(/C=C2\\SC(=S)NC2=O)c([NH+]([O-])O)c1 (stereo not shown)", 1.0),
    ("O=C1NC(=S)S/C1=C\\c1cc(Br)cc(Br)c1O", 0.0),
    ("O=C1NC(=S)S/C1=C\\c1ccc(Cl)c(Cl)c1 [drawing 37]", 0.0),
    ("O=C1NC(=S)S/C1=C\\c1ccc(Cl)c([N+](=O)[O-])c1", 1.0),
    ("N=C1NC(=O)/C(=C/c2ccc(Cl)c(Cl)c2)S1", 0.0),
    ("O=C1NC(=S)S/C1=C\\c1cccc(C(F)(F)F)c1F", 1.0),
    ("COc1ccc(F)c(/C=C2\\SC(=S)NC2=O)c1", 0.0),
    ("CC(C)(C)c1ccc(Oc2ccc([N+](=O)[O-])cc2/C=C2\\SC(=S)NC2=O)cc1", 1.0),
    ("O=C1NC(=S)S/C1=C\\c1cc(Cl)ccc1[N+](=O)[O-]", 0.0),
    ("COc1cccc(F)c1/C=C1\\SC(=S)NC1=O", 0.0),
    ("COc1cc(F)c(/C=C2\\SC(=S)NC2=O)cc1OC", 0.0),
    ("COc1cccc(OC)c1/C=C1\\SC(=S)NC1=O", 0.0),
    ("O=C1NC(=S)S/C1=C\\c1ccc(N2CCOCC2)c([N+](=O)[O-])c1", 0.0),
    ("COc1c(Br)cc(Br)cc1/C=C1\\SC(=S)NC1=O", 1.0),
    ("O=C1NC(=S)S/C1=C\\c1ccc(Cl)cc1[N+](=O)[O-]", 0.0),
    ("O=C1NC(=S)S/C1=C\\c1c(F)cccc1F", 0.0),
]

###

- SYSTEM_TESTED: S. pyogenes DNA polymerase holoenzyme (PolC, tau-complex, β) (Streptococcus pyogenes, UniProt Q8NZB5)
- EXPERIMENTAL_CONDITIONS: read-out: IC50 S. pyog.
pIC50: −log10 of the molar value.

# SMILES_STRING, RELATION, pIC50
records = [
    ("COc1cc(/C=C2\\SC(=S)NC2=O)c([N+](=O)[O-])cc1OC", "<", 3.49),
    ("O=C1NC(=S)S/C1=C\\c1ccc(Br)cc1F", "=", 4.22),
    ("CCOc1c(Br)cc(Br)cc1/C=C1\\SC(=S)NC1=O", "=", 4.87),
    ("O=C1NC(=S)S/C1=C\\c1cc(F)ccc1F", "=", 3.68),
    ("O=C1NC(=S)S/C1=C\\c1cc([N+](=O)[O-])ccc1N1CCCCC1", "=", 4.62),
    ("Cc1cccc(C)c1/C=C1\\SC(=S)NC1=O", "=", 3.57),
    ("O=C1NC(=S)S/C1=C\\c1cc([N+](=O)[O-])ccc1Sc1ccc(Cl)cc1", "=", 5.45),
    ("COc1ccc(/C=C2\\SC(=S)NC2=O)cc1[N+](=O)[O-]", "<", 3.49),
    ("O=C1NC(=S)S/C1=C\\c1cc(C(F)(F)F)ccc1F", "=", 4.35),
]

###

- SYSTEM_TESTED: S. pyogenes DNA polymerase holoenzyme (PolC, tau-complex, β) (Streptococcus pyogenes)
- EXPERIMENTAL_CONDITIONS: read-out: IC50 S. pyog.
// classify: if (IC50 < 90 µM) True else False

# COMPOUND, CLASS
measured = [
    ("O=C1NC(=S)S/C1=C\\c1cccc(Cl)c1F", "True"),
    ("O=C1NC(=S)S/C1=C\\c1ccc(F)c(F)c1", "False"),
    ("O=C1NC(=S)S/C1=C\\c1cc([N+](=O)[O-])ccc1OC(F)F", "False"),
    ("C/N=C1\\NC(=O)/C(=C/c2cc(Br)cc(Br)c2OC)S1", "False"),
    ("O=C1NC(=S)S/C1=C\\c1cc(Br)ccc1F", "True"),
    ("O=C1NC(=S)S/C1=C\\c1cc([N+](=O)[O-])ccc1N1CCOCC1", "False"),
    ("CC(C)Oc1c(Br)cc(Br)cc1/C=C1\\SC(=S)NC1=O", "True"),
    ("O=C1NC(=S)S/C1=C\\c1ccc(Cl)c(Cl)c1 [drawing 34]", "True"),
    ("O=C1NC(=S)S/C1=C\\c1cc(Br)cc(Br)c1", "True"),
    ("O=C1NC(=S)S/C1=C\\c1cc([N+](=O)[O-])ccc1SC1CCCCC1", "True"),
]

###

- SYSTEM_TESTED: Y. pestis DNA polymerase III holoenzyme (Yersinia pestis, UniProt Q0WHY6)
- EXPERIMENTAL_CONDITIONS: read-out: IC50 Y. pestis
Classify by IC50. Ranges: category 1: < 30 µM; category 2: ≥ 30 µM and < 90 µM; category 3: ≥ 90 µM

# COMPOUND, CLASS
measured = [
    ("O=C1NC(=S)S/C1=C\\c1ccc(Cl)c(Cl)c1 [drawing 34]", "category 2"),
    ("O=C1NC(=S)S/C1=C\\c1c(F)cccc1F", "category 3"),
    ("O=C1NC(=S)S/C1=C\\c1cc([N+](=O)[O-])ccc1SC1CCCCC1", "category 1"),
    ("O=C1NC(=S)S/C1=C\\c1ccc(N2CCOCC2)c([N+](=O)[O-])c1", "category 3"),
    ("O=C1NC(=S)S/C1=C\\c1cc(Br)cc(Br)c1O", "category 3"),
    ("O=C1NC(=S)S/C1=C\\c1cc([N+](=O)[O-])ccc1Sc1ccc(Cl)cc1", "category 1"),
    ("O=C1NC(=S)S/C1=C\\c1cc(Br)cc(Br)c1", "category 1"),
    ("O=C1NC(=S)S/C1=C\\c1cc([N+](=O)[O-])ccc1OC(F)F", "category 2"),
    ("CC(C)(C)c1ccc(Oc2ccc([N+](=O)[O-])cc2/C=C2\\SC(=S)NC2=O)cc1", "category 1"),
    ("COc1c(Br)cc(Br)cc1/C=C1\\SC(=S)NC1=O", "category 2"),
    ("O=C1NC(=S)S/C1=C\\c1ccc(Cl)c([N+](=O)[O-])c1", "category 1"),
    ("O=C1NC(=S)S/C1=C\\c1ccc(F)cc1F", "category 3"),
    ("COc1cc(/C=C2\\SC(=S)NC2=O)c([N+](=O)[O-])cc1OC", "category 3"),
    ("O=C1NC(=S)S/C1=C\\c1ccc(Cl)c(Cl)c1 [drawing 37]", "category 3"),
    ("O=C1NC(=S)S/C1=C\\c1cc(Br)ccc1F", "category 3"),
    ("COc1cccc(/C=C2\\SC(=S)NC2=O)c1F", "category 2"),
    ("O=C1NC(=S)S/C1=C\\c1c(Cl)cccc1Cl", "category 3"),
    ("O=C1NC(=S)S/C1=C\\c1cc([N+](=O)[O-])ccc1N1CCCCC1", "category 2"),
]

###

- SYSTEM_TESTED: Y. pestis DNA polymerase III holoenzyme (Yersinia pestis, UniProt Q0WHY6)
- EXPERIMENTAL_CONDITIONS: read-out: IC50 Y. pestis
REPORTED_PROPERTY: log10 IC50 (log10 of the value in µM)

# MOLECULE, log10 IC50
data = [
    ("O=C1NC(=S)S/C1=C\\c1cc(F)c(F)cc1F", 2.31),
    ("O=C1NC(=S)S/C1=C\\c1ccc([N+](=O)[O-])c(O)c1", 2.21),
    ("COc1ccc(F)c(/C=C2\\SC(=S)NC2=O)c1", 2.25),
    ("O=C1NC(=S)S/C1=C\\c1cccc(Cl)c1F", 2.09),
    ("COc1cccc(OC)c1/C=C1\\SC(=S)NC1=O", 2.27),
    ("CN(C)c1ccc(/C=C2\\SC(=S)NC2=O)c([NH+]([O-])O)c1 (stereo not shown)", 1.35),
    ("O=C1NC(=S)S/C1=C\\c1ccc(F)c(F)c1", 2.38),
    ("O=C1NC(=S)S/C1=C\\c1cc([N+](=O)[O-])ccc1N1CCOCC1", 2.03),
    ("O=C1NC(=S)S/C1=C\\c1cc(C(F)(F)F)ccc1F", 2.03),
    ("O=C1NC(=S)S/C1=C\\c1cc(Cl)ccc1[N+](=O)[O-]", 2.43),
    ("CC(C)Oc1c(Br)cc(Br)cc1/C=C1\\SC(=S)NC1=O", 1.27),
    ("N=C1NC(=O)/C(=C/c2ccc(Cl)c(Cl)c2)S1", 2.06),
    ("O=C1NC(=S)S/C1=C\\c1ccc(Br)cc1F", 1.45),
    ("C/N=C1\\NC(=O)/C(=C/c2ccc(Cl)c(Cl)c2)S1", 2.46),
    ("O=C1NC(=S)S/C1=C\\c1cc([N+](=O)[O-])ccc1F", 2.00),
    ("O=C1NC(=S)S/C1=C\\c1ccc(Cl)cc1[N+](=O)[O-]", 1.81),
    ("COc1ccc([N+](=O)[O-])cc1/C=C1\\SC(=S)NC1=O", 2.10),
    ("COc1ccc(/C=C2\\SC(=S)NC2=O)cc1[N+](=O)[O-]", 1.69),
    ("CCOc1c(Br)cc(Br)cc1/C=C1\\SC(=S)NC1=O", 1.35),
    ("O=C1NC(=S)S/C1=C\\c1cccc(C(F)(F)F)c1F", 2.22),
    ("O=C1NC(=S)S/C1=C\\c1cccc(F)c1F", 2.33),
    ("O=C1NC(=S)S/C1=C\\c1cc2c(cc1[N+](=O)[O-])OCO2", 2.16),
    ("Cc1cccc(C)c1/C=C1\\SC(=S)NC1=O", 2.48),
]
